Recorded half-life, one value per entry.
assay: Spontaneous hydrolysis in rabbit plasma; format: in vitro ADME; settings: rabbit plasma; read-out: t1/2 for spontaneous hydrolysis
observedProperty: half-life (h)

> print(dat)
                                   molecule  valuereported
1  CCOc1oc(=O)c2cc(NC(=N)N)ccc2c1Cl [7-guanidino-3-ethoxy-4-chloroisocoumarin, 7-guanidino-4-chloro-3-ethoxyisocoumarin]           0.07
2        N=C(N)SCCCOc1oc(=O)c2cc(N)ccc2c1Cl           2.33

----------
Recorded log10(kinact/KI), one value per entry.
target: human factor XIa (Homo sapiens, UniProt P03951); construct: human factor XIa; assay: Inactivation rate of human factor XIa; format: biochemical; conditions: Table I; pH 7.5, 25° C; [I] 3 to 330 μM; read-out: kobs/[I]
Sequence (P03951 388-625 limits assumed): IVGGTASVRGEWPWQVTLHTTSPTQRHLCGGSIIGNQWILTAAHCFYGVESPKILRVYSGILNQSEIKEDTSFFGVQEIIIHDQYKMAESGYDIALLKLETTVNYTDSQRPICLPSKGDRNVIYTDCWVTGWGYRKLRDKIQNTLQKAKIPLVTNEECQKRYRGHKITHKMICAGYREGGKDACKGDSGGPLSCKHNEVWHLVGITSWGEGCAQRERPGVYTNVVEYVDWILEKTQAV
Sequence (P03951 19-387 partner limits assumed): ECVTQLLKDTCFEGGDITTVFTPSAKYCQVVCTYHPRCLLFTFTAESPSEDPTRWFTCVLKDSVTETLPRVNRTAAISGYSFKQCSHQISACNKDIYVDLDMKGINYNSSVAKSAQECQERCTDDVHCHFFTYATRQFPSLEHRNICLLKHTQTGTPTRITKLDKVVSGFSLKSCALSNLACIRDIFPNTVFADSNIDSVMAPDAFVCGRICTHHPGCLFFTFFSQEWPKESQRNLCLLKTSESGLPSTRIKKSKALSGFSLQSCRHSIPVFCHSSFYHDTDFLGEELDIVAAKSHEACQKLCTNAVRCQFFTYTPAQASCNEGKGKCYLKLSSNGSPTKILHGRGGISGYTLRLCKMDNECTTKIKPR
observedProperty: log10(kinact/KI) (log10 of the value in M⁻¹ s⁻¹)

> print(dat)
                structuresmilesstring  observedproperty  valuereported
1           NCCCOc1oc(=O)c2ccccc2c1Cl  log10(kinact/KI)           2.58
2  N=C(N)SCCCOc1oc(=O)c2cc(N)ccc2c1Cl  log10(kinact/KI)           4.34
3     N=C(N)SCCCOc1oc(=O)c2ccccc2c1Cl  log10(kinact/KI)           4.67
4      N=C(N)SCCOc1oc(=O)c2ccccc2c1Cl  log10(kinact/KI)           4.64
5    CCOc1oc(=O)c2cc(NC(=N)N)ccc2c1Cl  log10(kinact/KI)           4.78

----------
molecular target: bovine trypsin (Bos taurus); assay: Inactivation rate of bovine trypsin; assay type: biochemical; settings: Table I; pH 7.5, 25° C; [I] 1 to 12 μM; read-out: kobs/[I]
Counter-ions that a name gives are not always drawn.
observedProperty: kinact/KI

> print(dat)
                                   compound                   measuredon  valuereported
1  NCCCOc1oc(=O)c2ccccc2c1Cl [3-(3-aminopropoxy)-4-chloroisocoumarin]  bovine trypsin (Bos taurus)   7600 M⁻¹ s⁻¹
2          COc1oc(=O)c2cc(NC(=O)CN)ccc2c1Cl  bovine trypsin (Bos taurus)  32100 M⁻¹ s⁻¹
3  CCOc1cc2ccc(NC(=N)N)cc2c(=O)o1 [7-guanidino-3-ethoxyisocoumarin]  bovine trypsin (Bos taurus)  20000 M⁻¹ s⁻¹
4  NCCCOc1cc2ccccc2c(=O)o1 [3-(3-aminopropoxy)isocoumarin]  bovine trypsin (Bos taurus)   1200 M⁻¹ s⁻¹
5  COc1cc2ccc(NC(=N)N)cc2c(=O)o1 [7-guanidino-3-methoxyisocoumarin]  bovine trypsin (Bos taurus)   3300 M⁻¹ s⁻¹
6  COc1oc(=O)c2cc(NC(=O)[C@H](C)N)ccc2c1Cl [Hydrochloride]  bovine trypsin (Bos taurus)    470 M⁻¹ s⁻¹
7           N=C(N)SCCCOc1oc(=O)c2ccccc2c1Cl  bovine trypsin (Bos taurus)  46000 M⁻¹ s⁻¹
8    N=C(N)Nc1ccc2cc(OCCc3ccccc3)oc(=O)c2c1  bovine trypsin (Bos taurus)  45000 M⁻¹ s⁻¹
9            N=C(N)SCCOc1oc(=O)c2ccccc2c1Cl  bovine trypsin (Bos taurus)  32000 M⁻¹ s⁻¹

----------
Target: human leukocyte elastase (HLE) (Homo sapiens)
Construct: from tissue; host or cells: human leukocytes (from the name)
Sequence (P08246 30-267): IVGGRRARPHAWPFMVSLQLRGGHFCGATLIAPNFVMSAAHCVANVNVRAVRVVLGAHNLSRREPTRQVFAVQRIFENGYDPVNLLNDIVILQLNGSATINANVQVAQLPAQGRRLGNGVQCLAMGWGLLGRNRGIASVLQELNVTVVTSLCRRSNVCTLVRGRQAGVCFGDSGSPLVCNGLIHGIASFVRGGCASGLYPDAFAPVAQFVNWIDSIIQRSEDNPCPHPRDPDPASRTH
Assay: Inactivation of human leukocyte elastase (HLE)
Type: biochemical
Settings: Table IV; pH 7.5, 25° C; [I] 0.001 to 0.18 mM; read-out: kobs/[I]
Counter-ions that a name gives are not always drawn.
Recorded kinact/KI, one value per entry.
observedProperty: kinact/KI (M⁻¹ s⁻¹)

> print(dat)
                                    compound  observedproperty  readingunit  valuereported
 1          COc1oc(=O)c2cc(NC(=O)CN)ccc2c1Cl         kinact/KI      M⁻¹ s⁻¹           7710
 2           N=C(N)SCCCOc1oc(=O)c2ccccc2c1Cl         kinact/KI      M⁻¹ s⁻¹           2000
 3             COc1cc2ccc(NC(=N)N)cc2c(=O)o1         kinact/KI      M⁻¹ s⁻¹            320
 4                 NCCCOc1oc(=O)c2ccccc2c1Cl         kinact/KI      M⁻¹ s⁻¹            860
 5        N=C(N)SCCCOc1oc(=O)c2cc(N)ccc2c1Cl         kinact/KI      M⁻¹ s⁻¹            130
 6  COc1oc(=O)c2cc(NC(=O)[C@H](C)N)ccc2c1Cl [Hydrochloride]         kinact/KI      M⁻¹ s⁻¹          13500
 7           COc1oc(=O)c2cc(NC(=N)N)ccc2c1Cl         kinact/KI      M⁻¹ s⁻¹           6400
 8                   NCCCOc1cc2ccccc2c(=O)o1         kinact/KI      M⁻¹ s⁻¹             47
 9    N=C(N)Nc1ccc2cc(OCCc3ccccc3)oc(=O)c2c1         kinact/KI      M⁻¹ s⁻¹            0.9
10            CCOc1cc2ccc(NC(=N)N)cc2c(=O)o1         kinact/KI      M⁻¹ s⁻¹           1900

----------
biological target: complement protein B (Homo sapiens, UniProt P00751); assay: Inactivation rate of complement protein B; format: biochemical; conditions: Table II; pH 7.5, 25° C; [I] 0.19 to 1.25 mM; read-out: kobs/[I]
Sequence (P00751 26-764): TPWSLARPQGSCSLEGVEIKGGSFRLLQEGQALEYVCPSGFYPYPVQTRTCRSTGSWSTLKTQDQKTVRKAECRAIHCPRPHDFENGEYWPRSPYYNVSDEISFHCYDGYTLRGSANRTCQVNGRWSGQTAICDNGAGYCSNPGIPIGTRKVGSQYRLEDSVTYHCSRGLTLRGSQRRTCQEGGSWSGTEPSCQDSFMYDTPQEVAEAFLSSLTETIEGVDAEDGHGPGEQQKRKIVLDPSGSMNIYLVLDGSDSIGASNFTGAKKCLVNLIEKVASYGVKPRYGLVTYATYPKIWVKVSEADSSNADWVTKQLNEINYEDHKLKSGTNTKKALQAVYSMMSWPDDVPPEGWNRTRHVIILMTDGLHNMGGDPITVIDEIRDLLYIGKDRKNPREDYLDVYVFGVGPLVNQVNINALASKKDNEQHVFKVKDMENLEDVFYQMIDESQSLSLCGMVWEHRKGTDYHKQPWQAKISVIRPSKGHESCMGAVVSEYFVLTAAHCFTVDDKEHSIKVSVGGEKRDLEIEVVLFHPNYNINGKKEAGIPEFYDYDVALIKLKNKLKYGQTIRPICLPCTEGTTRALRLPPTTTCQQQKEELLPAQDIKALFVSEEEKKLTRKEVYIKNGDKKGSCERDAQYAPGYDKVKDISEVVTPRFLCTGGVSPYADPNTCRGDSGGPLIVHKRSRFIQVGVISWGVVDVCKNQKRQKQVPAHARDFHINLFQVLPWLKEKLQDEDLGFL
Recorded kinact/KI, one value per entry.
observedProperty: kinact/KI (M⁻¹ s⁻¹)

> print(dat)
              structuresmilesstring  valuereported
1  CCOc1oc(=O)c2cc(NC(=N)N)ccc2c1Cl            167
2   COc1oc(=O)c2cc(NC(=N)N)ccc2c1Cl            285
3   N=C(N)SCCCOc1oc(=O)c2ccccc2c1Cl            0.4
4    N=C(N)SCCOc1oc(=O)c2ccccc2c1Cl             13

----------
biological target: bovine trypsin (Bos taurus, UniProt P00760); assay: Inactivation rate of bovine trypsin; assay type: biochemical; details: Table VIII; pH 7.5, 25° C; [I] 1.1-4.6 μM; read-out: kobs/[I]
Sequence (P00760 24-246): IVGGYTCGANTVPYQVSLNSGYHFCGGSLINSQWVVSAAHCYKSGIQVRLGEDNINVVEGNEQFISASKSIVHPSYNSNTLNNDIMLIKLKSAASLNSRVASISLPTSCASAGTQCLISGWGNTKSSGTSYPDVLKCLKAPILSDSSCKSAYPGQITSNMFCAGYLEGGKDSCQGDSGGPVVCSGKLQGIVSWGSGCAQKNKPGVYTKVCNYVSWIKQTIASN
Returns YES if the recorded kinact/KI is greater than or equal to 100000 M⁻¹ s⁻¹, and NO otherwise.

> print(dat)
                                   compound                                measuredon  cat
1  CC(C)(C)OC(=O)N[C@H](Cc1ccccc1)C(=O)Nc1ccc2c(Cl)c(OCCCSC(=N)N)oc(=O)c2c1 [Boc-D-Phe--NH-CiTPrOIC]  bovine trypsin (Bos taurus, UniProt P00760)  YES
2  N=C(N)SCCCOc1oc(=O)c2cc(NC(=O)[C@H](N)Cc3ccccc3)ccc2c1Cl [D-Phe--NH-CiTPrOIC]  bovine trypsin (Bos taurus, UniProt P00760)   NO
3  N=C(N)SCCOc1oc(=O)c2cc(NC(=O)Nc3ccccc3)ccc2c1Cl [PhNHCONH-CiTEtOIC]  bovine trypsin (Bos taurus, UniProt P00760)   NO
4  N=C(N)SCCCOc1oc(=O)c2cc(NC(=O)Cc3ccccc3)ccc2c1Cl [PhCH2 CONH-CiTPrOIC]  bovine trypsin (Bos taurus, UniProt P00760)  YES
5  N=C(N)SCCCOc1oc(=O)c2cc(NC(=O)Nc3ccccc3)ccc2c1Cl [PhNHCONH-CiTPrOIC]  bovine trypsin (Bos taurus, UniProt P00760)   NO
6  CC(=O)Nc1ccc2c(Cl)c(OCCCSC(=N)N)oc(=O)c2c1 [CH3 CONH-CiTPrOIC]  bovine trypsin (Bos taurus, UniProt P00760)  YES
7  N=C(N)SCCCOc1oc(=O)c2cc(NC(=O)NCc3ccccc3)ccc2c1Cl [PhCH2 NHCONH-CiTPrOIC]  bovine trypsin (Bos taurus, UniProt P00760)   NO
8  N=C(N)SCCCOc1oc(=O)c2cc(NC(=O)CCc3ccccc3)ccc2c1Cl [PhCH2 CH2 CONH-CiTPrOIC]  bovine trypsin (Bos taurus, UniProt P00760)   NO

The reported numbers originate from patent US5324648A.
